This collection of values is drawn from ChEMBL document CHEMBL2218924.

Target: Mitogen-activated protein kinase 3 (Homo sapiens) (UniProt P27361)
Sequence (P27361 whole entry): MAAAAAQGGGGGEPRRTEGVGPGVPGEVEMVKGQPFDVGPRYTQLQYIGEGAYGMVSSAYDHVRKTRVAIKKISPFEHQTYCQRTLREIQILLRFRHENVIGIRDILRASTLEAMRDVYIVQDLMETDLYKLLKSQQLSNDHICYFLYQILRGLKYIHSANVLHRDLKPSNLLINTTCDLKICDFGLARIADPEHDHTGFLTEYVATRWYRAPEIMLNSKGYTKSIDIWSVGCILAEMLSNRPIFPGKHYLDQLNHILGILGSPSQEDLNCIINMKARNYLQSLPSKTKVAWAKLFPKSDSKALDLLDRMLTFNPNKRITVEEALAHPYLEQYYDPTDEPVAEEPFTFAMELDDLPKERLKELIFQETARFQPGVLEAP
Conditions: at 10 µM
Description: Millipore: Percentage of residual kinase activity of MAPK3 at 10uM relative to control. Control inhibitor: ERK Inhibitor II at 30.0uM. Buffer: 25 mM Tris pH 7.5, 0.02 mM EGTA
Label t when residual activity is at or above 90%; otherwise label f.

Answered examples (5):
- Smiles notation: "O=c1cc(-c2cccc3c2Sc2ccccc2S3)oc(N2CCOCC2)c1"
  Cat: "t"
- Smiles notation: "O=C(Nc1cccc(Nc2cc(Nc3cccc(C(F)(F)F)c3)ncn2)c1)C1CC1"
  Cat: "f"
- Smiles notation: "Cc1ccc(S(=O)(=O)/C=C/C#N)cc1"
  Cat: "t"
- Smiles notation: "Nc1ccc2ncnc(NCCc3ccc(Oc4ccccc4)cc3)c2c1"
  Cat: "f"
- Smiles notation: "Oc1c2ccccc2c2c3c(cccc13)N=N2"
  Cat: "f"

Q: Is residual activity at least 90%? Consider "Cc1cncc2cccc(S(=O)(=O)N3CCCN(C(=O)CN)C[C@H]3C)c12"
Ans: f

Q: Moving on to the next compound: "Oc1ccc(-c2nc(-c3ccc(F)cc3)c(-c3ccncc3)[nH]2)cc1"
Ans: t

Q: Also "CC[n+]1c(/C=C/N(C)c2ccccc2)n(-c2ccccc2)c2ccc(-c3nc4ccccc4s3)cc21" , if possible.
Ans: t

Q: Try this compound too: "CCN(CC)C(=O)c1ccc(Nc2nc(OCC3CCCCC3)c3nc[nH]c3n2)cc1"
Ans: f

Q: Okay, and "C[C@@H](N)[C@H]1CC[C@H](C(=O)Nc2ccncc2)CC1" ?
Ans: t

Q: Same question, "Cc1cccc(-c2[nH]c(C(C)(C)C)nc2-c2ccc3c(c2)OCO3)n1" this time
Ans: t

Q: Again, but for "COc1cc2ncc(-c3ccccc3)nc2cc1OC"
Ans: f

Q: Field entry: "O=C1NC(=O)c2cc(Nc3ccc(F)cc3)c(Nc3ccc(F)cc3)cc21"
Ans: f

Q: "CCN(CC)CCCCN1c2ccccc2Oc2ccc(Cl)cc21" ?
Ans: t

Q: Next entry: "c1ccc(-c2n[nH]cc2-c2ccnc3ccccc23)nc1"
Ans: f

Q: Item: "Cc1nc2cc3nc(-c4cccs4)cnc3cc2n1C"
Ans: t

Q: Please give the result for "N#Cc1cnc2cnc(NCc3cccnc3)cc2c1Nc1ccc(F)c(Cl)c1" too.
Ans: f

Q: Same read-out for "O=C1c2ccccc2-[n+]2ccc3c([nH]c4ccccc43)c21" ?
Ans: t

Q: Next up: "NC(=O)c1ccc2[nH]c(-c3ccc(Oc4ccc(Cl)cc4)cc3)nc2c1"
Ans: t

====

Biological target: Protein-tyrosine kinase 2-beta (Homo sapiens) (UniProt Q14289)
Sequence (Q14289 whole entry, looked up): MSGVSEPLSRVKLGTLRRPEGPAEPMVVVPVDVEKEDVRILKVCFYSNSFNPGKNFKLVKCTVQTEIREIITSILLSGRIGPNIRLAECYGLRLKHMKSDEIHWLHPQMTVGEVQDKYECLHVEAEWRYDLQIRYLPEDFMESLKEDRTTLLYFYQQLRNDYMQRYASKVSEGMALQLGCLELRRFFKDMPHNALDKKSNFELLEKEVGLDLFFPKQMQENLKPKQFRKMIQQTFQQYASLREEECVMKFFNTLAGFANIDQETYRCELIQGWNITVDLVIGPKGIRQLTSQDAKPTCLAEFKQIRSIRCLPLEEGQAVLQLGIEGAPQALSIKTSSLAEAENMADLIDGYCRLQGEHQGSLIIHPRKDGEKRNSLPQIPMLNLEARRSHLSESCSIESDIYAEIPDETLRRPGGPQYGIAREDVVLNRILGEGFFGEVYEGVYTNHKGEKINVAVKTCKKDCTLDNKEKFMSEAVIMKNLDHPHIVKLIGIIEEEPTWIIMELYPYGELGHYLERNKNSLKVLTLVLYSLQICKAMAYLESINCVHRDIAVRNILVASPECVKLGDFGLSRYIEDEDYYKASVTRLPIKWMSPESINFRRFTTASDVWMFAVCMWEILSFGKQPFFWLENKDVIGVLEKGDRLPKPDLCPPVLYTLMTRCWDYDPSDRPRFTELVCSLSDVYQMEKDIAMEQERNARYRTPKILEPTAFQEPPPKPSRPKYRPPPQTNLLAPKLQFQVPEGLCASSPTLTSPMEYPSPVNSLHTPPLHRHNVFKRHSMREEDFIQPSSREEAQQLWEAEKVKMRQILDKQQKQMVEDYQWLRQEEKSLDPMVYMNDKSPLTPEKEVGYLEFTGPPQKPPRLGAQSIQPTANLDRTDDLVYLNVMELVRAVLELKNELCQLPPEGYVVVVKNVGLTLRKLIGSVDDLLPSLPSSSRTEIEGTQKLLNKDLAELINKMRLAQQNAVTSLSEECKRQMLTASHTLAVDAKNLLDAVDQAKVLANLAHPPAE
Settings: at 10 µM
Label scheme for residual activity: lower than 80% is No, 80% and above is Yes.

- Smiles notation: "N#Cc1cnc2cnc(NCc3cccnc3)cc2c1Nc1ccc(F)c(Cl)c1"
  Assay system: "Protein-tyrosine kinase 2-beta (Homo sapiens) (UniProt Q14289)"
  Cat: "No"
- Smiles notation: "Oc1ccc(-c2nc(-c3ccc(F)cc3)c(-c3ccncc3)[nH]2)cc1"
  Assay system: "Protein-tyrosine kinase 2-beta (Homo sapiens) (UniProt Q14289)"
  Cat: "Yes"
- Smiles notation: "CCN(CC)CCCCN1c2ccccc2Oc2ccc(Cl)cc21"
  Assay system: "Protein-tyrosine kinase 2-beta (Homo sapiens) (UniProt Q14289)"
  Cat: "Yes"
- Smiles notation: "O=C1NC(=O)c2c1c1c3ccccc3[nH]c1c1[nH]c3cc(Br)ccc3c21"
  Assay system: "Protein-tyrosine kinase 2-beta (Homo sapiens) (UniProt Q14289)"
  Cat: "Yes"
- Smiles notation: "N#CCCc1ccc2c(c1)-c1[nH]c3ccc([N+](=O)[O-])cc3c1CC(=O)N2"
  Assay system: "Protein-tyrosine kinase 2-beta (Homo sapiens) (UniProt Q14289)"
  Cat: "No"
- Smiles notation: "COc1cc2ncnc(Nc3ccc(NC(=O)c4ccccc4)cc3)c2cc1OC"
  Assay system: "Protein-tyrosine kinase 2-beta (Homo sapiens) (UniProt Q14289)"
  Cat: "No"
- Smiles notation: "O=[N+]([O-])c1ccc(-c2nc(-c3ccc(F)cc3)c(-c3ccncc3)[nH]2)cc1"
  Assay system: "Protein-tyrosine kinase 2-beta (Homo sapiens) (UniProt Q14289)"
  Cat: "Yes"
- Smiles notation: "CN(C)c1ccc(/C=C2\\C(=O)Nc3ccccc32)cc1"
  Assay system: "Protein-tyrosine kinase 2-beta (Homo sapiens) (UniProt Q14289)"
  Cat: "No"
- Smiles notation: "COc1cc2ncnc(N3CCN(C(=O)Nc4ccc(Oc5ccccc5)cc4)CC3)c2cc1OC"
  Assay system: "Protein-tyrosine kinase 2-beta (Homo sapiens) (UniProt Q14289)"
  Cat: "Yes"
- Smiles notation: "Ic1cccc(CSc2nnc(-c3ccncc3)o2)c1"
  Assay system: "Protein-tyrosine kinase 2-beta (Homo sapiens) (UniProt Q14289)"
  Cat: "Yes"

Q: Is the recorded value of residual activity equal to or greater than 80% for this compound? "Cn1nc2c3c(cccc31)C(=O)c1ccccc1-2"
Ans: No

Q: Please do the same for "O=C1Nc2ccc(Br)cc2/C1=C\c1cc2c([nH]1)CCCC2" as well.
Ans: No

Q: Entry to check: "Cc1cncc2cccc(S(=O)(=O)N3CCCN(C(=O)CN)C[C@H]3C)c12"
Ans: No

Q: And the next one, "Cc1ccc(NC2=CC(=O)c3sc(C)nc3C2=O)cc1" ?
Ans: Yes

Q: Please give the result for "Oc1n[nH]c2nnc(-c3c(-c4ccccc4)nn4ccccc34)cc12" too.
Ans: Yes

====

Would you kindly list residual activity for each of these compounds?
Target: Testis-specific serine/threonine-protein kinase 2 (Homo sapiens)
Settings: at 10 µM
Give bare numbers, in %.

- Smiles notation: "Nc1n[nH]c2nnc(-c3c(-c4ccccc4)nn4ccccc34)cc12"
  residual activity, %: 86

List reported residual activity for each of these compounds:
1. C[C@@H](N)[C@H]1CC[C@H](C(=O)Nc2ccncc2)CC1
2. CO[C@H]1[C@@H](OC)C[C@H](C)[C@@H](OC)C2=CC(=O)C=C(NC(=O)/C(C)=C/C=C/[C@H](OC)[C@@H](OC(N)=O)/C(C)=C/[C@@H]1C)C2=O
3. Nc1cccc(-c2cc3c(Oc4cccc(O)c4)ncnc3[nH]2)c1
4. Cc1nc(-c2ccccc2)c(-c2ccncc2)o1
5. Cc1cc(Nc2nc(-c3ccccc3)nc3ccccc23)n[nH]1
6. O=C(Nc1cccc(Nc2nccc(Nc3cccc(C(F)(F)F)c3)n2)c1)C1CC1

Ans:
1. 99
2. 75
3. 78
4. 98
5. 67
6. 78

====

Could you please report measured residual activity for the items listed next?
Target: Serine/threonine-protein kinase MARK1 (Homo sapiens)
Conditions: at 10 µM

Go through the items and report each one's residual activity.
1. O=C1Nc2cc(Br)ccc2/C1=C1/Nc2ccccc2/C1=N\O
2. Nc1nc(Nc2ccc(S(N)(=O)=O)cc2)nn1C(=S)Nc1c(F)cccc1F
3. CO[C@H]1[C@@H](OC)C[C@H](C)[C@@H](OC)C2=CC(=O)C=C(NC(=O)/C(C)=C/C=C/[C@H](OC)[C@@H](OC(N)=O)/C(C)=C/[C@@H]1C)C2=O

Ans:
1. 19%
2. 0%
3. 82%

List the reported residual activity of each molecule below.
1. O=C1Nc2ccc(Br)cc2/C1=C\c1cc2c([nH]1)CCCC2
2. c1ccc2c(-c3ccncc3)c[nH]c2c1
3. Cc1nc(-c2ccccc2)c(-c2ccncc2)o1
4. Oc1c2ccccc2c2c3c(cccc13)N=N2
5. CO[C@H]1C[C@@H]2CC[C@@H](C)[C@@](O)(O2)C(=O)C(=O)N2CCCC[C@H]2C(=O)O[C@H]([C@H](C)C[C@@H]2CC[C@@H](O)[C@H](OC)C2)CC(=O)[C@H](C)/C=C(\C)[C@@H](O)[C@@H](OC)C(=O)[C@H](C)C[C@H](C)/C=C/C=C/C=C/1C

Ans:
["59%", "77%", "89%", "6%", "71%"]

====

Please go through the items and note down their residual activity.
Target: Cyclin-dependent kinase 1/cyclin B1 (Homo sapiens) (UniProt P06493+P14635)
Sequence (P06493 whole entry, looked up): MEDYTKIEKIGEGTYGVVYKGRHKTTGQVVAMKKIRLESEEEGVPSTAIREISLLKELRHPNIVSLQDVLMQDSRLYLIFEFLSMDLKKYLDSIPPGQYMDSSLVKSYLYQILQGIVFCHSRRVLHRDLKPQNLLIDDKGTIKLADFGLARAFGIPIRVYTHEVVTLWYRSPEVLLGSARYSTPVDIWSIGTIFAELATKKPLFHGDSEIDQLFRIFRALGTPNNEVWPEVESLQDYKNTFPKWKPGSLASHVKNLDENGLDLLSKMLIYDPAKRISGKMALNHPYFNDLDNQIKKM
Sequence (P14635 whole entry, looked up): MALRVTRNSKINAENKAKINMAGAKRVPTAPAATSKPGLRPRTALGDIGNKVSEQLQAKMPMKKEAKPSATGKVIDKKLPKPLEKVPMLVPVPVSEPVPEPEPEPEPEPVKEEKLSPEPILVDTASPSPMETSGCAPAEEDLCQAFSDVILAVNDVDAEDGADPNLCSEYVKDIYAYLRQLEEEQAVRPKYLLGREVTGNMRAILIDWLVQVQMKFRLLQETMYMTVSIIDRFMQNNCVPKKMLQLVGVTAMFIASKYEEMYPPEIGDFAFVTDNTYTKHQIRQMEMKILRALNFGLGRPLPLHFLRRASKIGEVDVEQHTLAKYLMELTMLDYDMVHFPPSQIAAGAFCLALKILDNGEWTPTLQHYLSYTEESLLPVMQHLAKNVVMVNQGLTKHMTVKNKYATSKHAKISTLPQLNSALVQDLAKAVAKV
Conditions: at 1 µM
Answers are plain numbers, in %.

- Smiles notation: "O=c1c2ccccc2[nH]c(=S)n1CCN1CCC(=C(c2ccc(F)cc2)c2ccc(F)cc2)CC1"
  Test value: 114

Working through the 8 compounds below one at a time, give residual activity for each.
1. Oc1ccc(Nc2nc(-c3ccc(Cl)cc3)cs2)cc1
2. O=C1NC(=O)/C(=C\c2ccc3nccnc3c2)S1
3. CN(C)c1ccc(/C=C2\C(=O)Nc3ccccc32)cc1
4. Cc1nc2cc3nc(-c4cccs4)cnc3cc2n1C
5. O=C1c2ccccc2-[n+]2ccc3c([nH]c4ccccc43)c21
6. Oc1ccc(-c2nc(-c3ccc(F)cc3)c(-c3ccncc3)[nH]2)cc1
7. Cn1nc2c3c(cccc31)C(=O)c1ccccc1-2
8. N#C/C(=C(\N)Sc1ccc(N)cc1)c1ccccc1C(F)(F)F

Ans:
111
79
97
109
112
101
101
104

Give me residual activity for each of these compounds, listed below.
1. Cn1cnc2cc3c(Nc4cccc(Br)c4)ncnc3cc21
2. CC(=O)O/N=C1\C(=C2\C(=O)Nc3cc(Br)ccc32)Nc2ccccc21

Ans:
1. 103
2. 90
